Entry source: paper PMC2606940

Target or system: CLC-0 E166Q mutant (Torpedo marmorata, UniProt P21564, C212S/E166Q)
Assay type: cell-based
Test settings: read-out: Apparent affinity (K1/2); −100 mV
Property measured: IC50 (mM)

Molecule: O=C(O)COc1ccc(Cl)cc1 [CPA, p-chlorophenoxy acetate]
Target or system: CLC-0 E166Q mutant (Torpedo marmorata, UniProt P21564, C212S/E166Q)
Result value: 9.71
--
Molecule: CCCCCCCC(=O)O [octanoate]
Target or system: CLC-0 E166Q mutant (Torpedo marmorata, UniProt P21564, C212S/E166Q)
Result value: 4.21

----------
Listing: IC50 of selected compounds
Target or system: CLC-0 E166L mutant (Torpedo marmorata, UniProt P21564, C212S/E166L)
Sequence (P21564 1-805 E166L/C212S): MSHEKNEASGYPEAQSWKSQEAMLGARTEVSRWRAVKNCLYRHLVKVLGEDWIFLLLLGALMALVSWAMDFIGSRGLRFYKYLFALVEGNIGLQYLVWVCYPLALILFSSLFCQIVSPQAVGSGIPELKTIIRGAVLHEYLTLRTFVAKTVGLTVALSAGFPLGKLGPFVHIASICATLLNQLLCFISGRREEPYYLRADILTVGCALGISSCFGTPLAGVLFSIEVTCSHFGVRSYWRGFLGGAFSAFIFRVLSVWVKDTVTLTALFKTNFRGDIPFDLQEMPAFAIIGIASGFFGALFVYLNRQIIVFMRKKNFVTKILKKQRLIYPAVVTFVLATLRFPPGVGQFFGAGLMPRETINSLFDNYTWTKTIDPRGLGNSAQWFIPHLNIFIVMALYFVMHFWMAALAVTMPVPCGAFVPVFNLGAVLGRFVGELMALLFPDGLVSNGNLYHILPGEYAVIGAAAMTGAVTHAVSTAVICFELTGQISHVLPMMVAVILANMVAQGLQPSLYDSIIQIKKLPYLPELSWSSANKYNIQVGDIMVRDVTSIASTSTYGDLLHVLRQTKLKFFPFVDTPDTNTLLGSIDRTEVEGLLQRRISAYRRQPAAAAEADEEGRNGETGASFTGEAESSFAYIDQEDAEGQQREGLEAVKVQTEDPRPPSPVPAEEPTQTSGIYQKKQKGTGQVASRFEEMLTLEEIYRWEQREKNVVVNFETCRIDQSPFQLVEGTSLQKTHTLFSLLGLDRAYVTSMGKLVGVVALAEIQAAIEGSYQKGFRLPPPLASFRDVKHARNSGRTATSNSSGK
Assay type: cell-based
Test settings: read-out: Apparent affinity (K1/2); −140 mV
Property measured: IC50 (µM)

Compound: CCCCCCCC(=O)O [octanoate]
Result value: 18
--
Compound: O=C(O)COc1ccc(Cl)cc1 [CPA, p-chlorophenoxy acetate]
Result value: 280
